- System: HeLa
- experiment.summary: SRB colorimetric assay of cell growth and viability, HeLa
- Format: cell-based, human
- conditions: HELA; 48 hours exposure
Where a SMILES comes first, the peptide text is derived from it. Bridges are numbered along the chain shown (N, C = ends). [ ]: non-standard residue; d: D form. The star is where a group is joined. 2Nal = N[C@@H](Cc1ccc2ccccc2c1)C(=O)O; d(aIle) = CC[C@H](C)[C@@H](N)C(=O)O; d(aThr) = C[C@@H](O)[C@@H](N)C(=O)O; Hexanoyl(5-Me) = CC(C)CCCC(=O)*; Orn = NCCC[C@H](N)C(=O)O; Dhb = C/C=C(\N)C(=O)O
Kindly state TGI HELA for each of the entries shown.
// note: answer is a bare numeric in Molar

Input C/C=C1\NC(=O)[C@H](Cc2ccc3ccccc3c2)NC(=O)[C@@H](C(C)C)NC(=O)[C@@H]([C@@H](C)CC)NC(=O)[C@H](NC(=O)[C@H](NC(=O)[C@H](CCCN)NC(=O)[C@H]2CCCN2C(=O)[C@H](NC(=O)[C@@H](NC(=O)[C@@H](NC(=O)[C@H](NC(=O)CCCC(C)C)C(C)C)[C@@H](C)O)C(C)C)C(C)C)[C@@H](C)CC)[C@@H](C)OC(=O)[C@H](C(C)C)NC1=O [Compound 85, [Nal^3]-KF] ({Hexanoyl(5-Me)}-[dV]TV[dV][dP][Orn][d(aIle)][d(aThr)][d(aIle)][dV][2Nal][Dhb]V; ester 8-C) . Output TGI HELA: 1.94E−07

Input C/C=C1\NC(=O)[C@H](Cc2ccccc2)NC(=O)[C@@H](C(C)C)NC(=O)[C@@H]([C@@H](C)CC)NC(=O)[C@H](NC(=O)[C@H](NC(=O)[C@H](CCCN)NC(=O)[C@H]2CCCN2C(=O)[C@H](NC(=O)[C@@H](NC(=O)[C@@H]2CCCN2C(=O)[C@H](NC(=O)CCCC(C)C)C(C)C)C(C)C)C(C)C)[C@@H](C)CC)[C@@H](C)OC(=O)[C@H](C(C)C)NC1=O [Compound 117, [Pro^12]-KF] ({Hexanoyl(5-Me)}-[dV]PV[dV][dP][Orn][d(aIle)][d(aThr)][d(aIle)][dV]F[Dhb]V; ester 8-C) . Output TGI HELA: 2.89E−06

---

- Tested on: SK-BR-3
- experiment.summary: SRB colorimetric assay of cell growth and viability, SK-BR-3
- Type: cell-based, human
- conditions: 48 hours exposure
Where a SMILES comes first, the peptide text is derived from it. Bridges are numbered along the chain shown (N, C = ends). [ ]: non-standard residue; d: D form. The star is where a group is joined. d(aIle) = CC[C@H](C)[C@@H](N)C(=O)O; d(aThr) = C[C@@H](O)[C@@H](N)C(=O)O; hCha = N[C@@H](CCC1CCCCC1)C(=O)O; Hexanoyl(5-Me) = CC(C)CCCC(=O)*; Orn = NCCC[C@H](N)C(=O)O; Dhb = C/C=C(\N)C(=O)O
measured.metric: GI50 (nM)
// note: answer is a bare numeric in nM

Item C/C=C1\NC(=O)[C@H](Cc2ccccc2)NC(=O)[C@@H](C(C)C)NC(=O)[C@@H]([C@@H](C)CC)NC(=O)[C@H](NC(=O)[C@H](NC(=O)[C@H](CCCN)NC(=O)[C@H]2CCCN2C(=O)[C@H](NC(=O)[C@@H](NC(=O)[C@@H](NC(=O)[C@H](NC(=O)CC[C@H](C)CC)C(C)C)[C@@H](C)O)C(C)C)C(C)C)[C@@H](C)CC)[C@@H](C)OC(=O)[C@H](C(C)C)NC1=O [Compound 16, [(4R)-MeHex^14]-KF] was tested on SK-BR-3; the reported GI50 is 1250

Item C/C=C1\NC(=O)[C@H](Cc2ccccc2)NC(=O)[C@@H](C(C)C)NC(=O)[C@@H]([C@@H](C)CC)NC(=O)[C@H](NC(=O)[C@H](NC(=O)[C@H](CCCN)NC(=O)[C@H]2CCCN2C(=O)[C@H](NC(=O)[C@@H](NC(=O)[C@@H](NC(=O)[C@H](NC(=O)c2ccc(C)cc2)C(C)C)[C@@H](C)O)C(C)C)C(C)C)[C@@H](C)CC)[C@@H](C)OC(=O)[C@H](C(C)C)NC1=O [Compound 19, [p-MeBza^14]-KF] was tested on SK-BR-3; the reported GI50 is 170

Item C/C=C1\NC(=O)[C@H](Cc2ccccc2)NC(=O)[C@@H](C(C)C)NC(=O)[C@@H]([C@@H](C)CC)NC(=O)[C@H](NC(=O)[C@H](NC(=O)[C@H](CCCN)NC(=O)[C@H]2CCCN2C(=O)[C@H](NC(=O)[C@H](CCC2CCCCC2)NC(=O)[C@@H](NC(=O)[C@H](NC(=O)CCCC(C)C)C(C)C)[C@@H](C)O)C(C)C)[C@@H](C)CC)[C@@H](C)OC(=O)[C@H](C(C)C)NC1=O [Compound 9, [hCh^11]-KF] ({Hexanoyl(5-Me)}-[dV]T[hCha][dV][dP][Orn][d(aIle)][d(aThr)][d(aIle)][dV]F[Dhb]V; ester 8-C) was tested on SK-BR-3; the reported GI50 is 149

Item C/C=C1\NC(=O)[C@H](Cc2ccccc2)NC(=O)[C@@H](C(C)C)NC(=O)[C@@H]([C@@H](C)CC)NC(=O)[C@H](NC(=O)[C@H](NC(=O)[C@H](CCCCN)NC(=O)[C@H]2CCCN2C(=O)[C@H](NC(=O)[C@@H](NC(=O)[C@@H](NC(=O)[C@H](NC(=O)CCCC(C)C)C(C)C)[C@@H](C)O)C(C)C)C(C)C)[C@@H](C)CC)[C@@H](C)OC(=O)[C@H](C(C)C)NC1=O [Compound 5, [Lys^8]-KF] was tested on SK-BR-3; the reported GI50 is 169

Item C/C=C1\NC(=O)[C@H](Cc2ccccc2)NC(=O)[C@@H](C(C)C)NC(=O)[C@@H]([C@@H](C)CC)NC(=O)[C@H](NC(=O)[C@H](NC(=O)[C@H](CCCN)NC(=O)[C@H]2CCCN2C(=O)[C@H](NC(=O)[C@@H](NC(=O)[C@@H](NC(=O)[C@H](NC(=O)CCCNC(=N)N)C(C)C)[C@@H](C)O)C(C)C)C(C)C)[C@@H](C)CC)[C@@H](C)OC(=O)[C@H](C(C)C)NC1=O [Compound 29, [4-GuBut^14]-KF] was tested on SK-BR-3; the reported GI50 is 6700

Item C/C=C1\NC(=O)[C@H](Cc2ccccc2)NC(=O)[C@@H](C(C)C)NC(=O)[C@@H]([C@@H](C)CC)NC(=O)[C@H](NC(=O)[C@H](NC(=O)[C@H](CCCN)NC(=O)[C@H]2CCCN2C(=O)[C@H](NC(=O)[C@H](CCCN)NC(=O)[C@@H](NC(=O)[C@H](NC(=O)CCCC(C)C)C(C)C)[C@@H](C)O)C(C)C)[C@@H](C)CC)[C@@H](C)OC(=O)[C@H](C(C)C)NC1=O [Compound 49, [Orn^11]-KF] ({Hexanoyl(5-Me)}-[dV]T[Orn][dV][dP][Orn][d(aIle)][d(aThr)][d(aIle)][dV]F[Dhb]V; ester 8-C) was tested on SK-BR-3; the reported GI50 is 1940

Item C/C=C1\NC(=O)[C@H](Cc2ccccc2)NC(=O)[C@@H](C(C)C)NC(=O)[C@@H]([C@@H](C)CC)NC(=O)[C@H](NC(=O)[C@H](NC(=O)[C@H](CCCN)NC(=O)[C@H]2CCCN2C(=O)[C@H](NC(=O)[C@@H](NC(=O)[C@@H](NC(=O)[C@H](NC(=O)CCCCCCCCCC)C(C)C)[C@@H](C)O)C(C)C)C(C)C)[C@@H](C)CC)[C@@H](C)OC(=O)[C@H](C(C)C)NC1=O [Compound 15, [Und^14]-KF] was tested on SK-BR-3; the reported GI50 is 26.7

Item CC[C@H](C)[C@@H](NC(=O)[C@H](CCCN)NC(=O)[C@H]1CCCN1C(=O)[C@H](NC(=O)[C@@H](NC(=O)[C@@H](NC(=O)[C@H](NC(=O)CCCC(C)C)C(C)C)[C@@H](C)O)C(C)C)C(C)C)C(=O)N[C@H]1C(=O)N[C@H]([C@@H](C)CC)C(=O)N[C@H](C(C)C)C(=O)N[C@@H](Cc2ccccc2)C(=O)NCC(=O)N[C@@H](C(C)C)C(=O)O[C@@H]1C [Compound 65, [Gly^2]-KF] ({Hexanoyl(5-Me)}-[dV]TV[dV][dP][Orn][d(aIle)][d(aThr)][d(aIle)][dV]FGV; ester 8-C) was tested on SK-BR-3; the reported GI50 is 1160
